The origin of these recorded values is paper PMC7939470.

biological target: T1, RPA70N_(1–120), N-terminal domain of RPA70 (DBD-F) (UniProt P27694 1-120); experiment: fluorescence polarisation; FPA; 0–150 μM RPA70N or RPA70A titrated to 50 nM FITC-labeled peptide; 20 mM HEPES, 100 mM NaCl, 2 mM DTT, pH 7.4; 1 h at 25 °C; one site–specific fit; conditions: both partners purified
T1 construct: Replication protein A 70-kDa subunit (RPA70), N-terminal domain (DBD-F), residues 1-120; Uniformly 15N-labelled in the NMR titrations, unlabelled in the FPA assays; also called 15N-labeled RPA70N; source: 15N-labeled form by the same method using M9 medium
T1 sequence (P27694 1-120): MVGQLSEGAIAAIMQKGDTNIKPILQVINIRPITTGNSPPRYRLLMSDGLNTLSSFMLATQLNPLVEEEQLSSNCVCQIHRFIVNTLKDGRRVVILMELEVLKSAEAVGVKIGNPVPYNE
Where no end group is shown, it is not given here.
Metric: Kd (µM)
Please state the figure in µM; there is no need to write the unit.

Below are worked cases with known answers.
| Binder | Measurement Units | Recorded Measurement |
| --- | --- | --- |
| DYGDDDYGGAGGADQDPGGFGDPAPD (peptide, UniProt P15927 8-33, looked up, also: FITC with 6-aminohexanoic acid spacer, end not given here) [FITC-labeled pmRPA32-Y20A peptide] | µM | 24.5 |
| DYGDDDAGGAGGYDQDPGGFGDPAPD (peptide, UniProt P15927 8-33, looked up, also: FITC with 6-aminohexanoic acid spacer, end not given here) [FITC-labeled pmRPA32-Y14A peptide] | µM | 37 |
| DYGDDDYGGAGGYDQDPGGAGDPAPD (peptide, UniProt P15927 8-33, looked up, also: FITC with 6-aminohexanoic acid spacer, end not given here) [FITC-labeled pmRPA32-F27A peptide] | µM | 21.7 |

Query: I would be grateful if you could share the reported Kd for DAGDDDYGGAGGYDQDPGGFGDPAPD (peptide, UniProt P15927 8-33, looked up, also: FITC with 6-aminohexanoic acid spacer, end not given here) [FITC-labeled pmRPA32-Y9A peptide] .
Reply: 40
